Overview of recorded Absolute DNA transfection efficiency in HEK293 cells for various molecules
System: HEK293 cells
Protocol text: Preliminary screening as DNA vectors, GFP transfection of HEK293 cells
Format: cell-based
Condition notes: amino lipid/DOPE liposome with 75 ng plasmid DNA (psin-EGFP-IRES-Puro); number of GFP-expressing cells divided by total nuclei (Hoechst)
Answer with a number only, understood to be in %.

// below: answered molecules
• CCCCCCCCCCCCCCCCCCSc1nc(NCCCCCCC)nc(NCC2CCN(C)CC2)n1 [S18N7 D10] = 13.5
• CCCCCCCCCCCCCCSc1nc(NCCCCCCCCCCCCC)nc(NCCCN(C)C)n1 [S14N13 D6] = 2.6
• CCCCCCCCCCSc1nc(NCCN2CCCC2)nc(SCCCCCCC)n1 [S7S10 D3] = 19.4
• CCCCCCCCNc1nc(NCCN(C)C)nc(SCCCCCCC)n1 [S7N8 D1] = 15.6
• CCCCCCCCCCCCCCCSc1nc(NCCCCCC)nc(NCCCN2CCN(C)CC2)n1 [S15N6 D9] = 15.4
• CCCCCCCCSc1nc(NCCCN(C)C)nc(SCCCCCCCC)n1 [S8S8 D6] = 5.1
• CCCCCCCCCCCCCCCCNc1nc(NCCN2CCCCC2)nc(SCCCCCCCCCCCCCC)n1 [S14N16 D4] = 1.9
• CCCCCCCCNc1nc(NCCN2CCOCC2)nc(SCCCCCCC)n1 [S7N8 D2] = 2.7

As a next step, examine the molecule that follows.
In: Please report the measured Absolute DNA transfection efficiency in HEK293 cells for CCCCCCCCCCCCCCCSc1nc(NCCCCCCCC)nc(NCCN2CCCC2)n1 [S15N8 D3] tested on HEK293 cells.
Out: 12.7

* * *

Test system: MCF7 cells
Protocol text: Transfection of MCF7 cell line, DNA vectors
Assay type: cell-based
Design: concentration or dose not given beside the values
Condition notes: plasmid DNA, GFP cells / total cells
I'd appreciate it if you marked entries 1 when Absolute DNA transfection efficiency in MCF7 cells is lower than 30% and -1 when it is not.

* CCCCCCCCCCCSc1nc(NCCCCCCC)nc(NCC2CCN(C)CC2)n1 | 1

In: Please indicate whether the reported Absolute DNA transfection efficiency in MCF7 cells of CCCCCCCCCCCCCCCSc1nc(NCCN2CCN(C)CC2)nc(SCCCCCCCCC)n1 is strictly below 30%.
Out: 1

In: Please indicate whether the reported Absolute DNA transfection efficiency in MCF7 cells of CCCCCCCCCCCSc1nc(NCCCCCCC)nc(NCCCN2CCN(C)CC2)n1 is strictly below 30%.
Out: 1

* * *

Test system: Hela cells
Protocol text: Transfection of Hela cell line, mRNA vectors
Type: cell-based
Condition notes: 50 ng EGFP mRNA per well
Overview of recorded Absolute mRNA transfection efficiency in Hela cells for various compounds
Answer with a number only, understood to be in %.

* CCCCCCCCCCCCSc1nc(NCCN2CCOCC2)nc(SCCCCCCCC)n1 [Compound S8S12D2] | 8.7
* CCCCCCCCCNc1nc(NCCCN(C)C)nc(SCCCCCCCCC)n1 [Compound S9N9D6] | 30.3
* CCCCCCCCCCCNc1nc(NCCCN2CCOCC2)nc(SCCCCCCCC)n1 [Compound S8N11D8] | 6.8

In: Annotate the compound CCCCCCCCCCCNc1nc(NCCN2CCCCC2)nc(SCCCCCCCC)n1 [Compound S8N11D4] with its measured Absolute mRNA transfection efficiency in Hela cells.
Out: 7.6

In: Annotate the compound CCCCCCCCCCCCNc1nc(NCCN2CCOCC2)nc(SCCCCCCCC)n1 [Compound S8N12D2] with its measured Absolute mRNA transfection efficiency in Hela cells.
Out: 19.3

In: Annotate the compound CCCCCCCCCCCSc1nc(NCCN(CC)CC)nc(SCCCCCCC)n1 [Compound S7S11D7] with its measured Absolute mRNA transfection efficiency in Hela cells.
Out: 5.2

In: Annotate the compound CCCCCCCCCCCCCCCSc1nc(NCCCN(C)C)nc(SCCCCCCCCC)n1 [Compound S9S15D6] with its measured Absolute mRNA transfection efficiency in Hela cells.
Out: 23.7

In: Annotate the compound CCCCCCCCCCCCSc1nc(NCCN2CCCCC2)nc(SCCCCCCCCC)n1 [Compound S9S12D4] with its measured Absolute mRNA transfection efficiency in Hela cells.
Out: 0.0
